- tgt: glucosyltransferase 72E2 (UGT72E2) (Arabidopsis thaliana, UniProt Q9LVR1)
- Sequence (Q9LVR1 whole entry): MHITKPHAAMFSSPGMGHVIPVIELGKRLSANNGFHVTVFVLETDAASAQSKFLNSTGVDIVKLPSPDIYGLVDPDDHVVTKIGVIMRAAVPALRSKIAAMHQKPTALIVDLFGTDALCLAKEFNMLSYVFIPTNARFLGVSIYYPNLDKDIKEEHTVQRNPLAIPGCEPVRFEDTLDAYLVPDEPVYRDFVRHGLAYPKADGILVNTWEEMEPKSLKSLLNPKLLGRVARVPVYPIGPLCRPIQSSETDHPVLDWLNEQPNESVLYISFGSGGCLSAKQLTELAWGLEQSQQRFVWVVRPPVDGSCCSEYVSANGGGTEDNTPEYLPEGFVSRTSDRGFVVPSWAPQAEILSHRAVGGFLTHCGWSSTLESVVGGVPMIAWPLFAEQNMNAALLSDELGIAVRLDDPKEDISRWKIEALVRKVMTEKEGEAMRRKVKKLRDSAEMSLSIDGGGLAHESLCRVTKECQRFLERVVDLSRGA
- procedure summary: Glucosyltransferase activity assay with 72E2, HPLC analysis
- Format: biochemical
- assay context: substrate glucosylation; HPLC peak area; conditions for UGT72E1: 1 mM substrate, 5 mM UDP-glucose, pH 7.0, 30° C., 1 h
Catalogue of molecules with associated Activity (area, uv × sec) 72E2
Dear colleague, please return just the value in uv × sec, with no unit written.

Below, 3 molecules whose answers are already recorded.
Query (molecule): COc1cc(/C=C/C=O)ccc1O ; field requested: Activity (area, uv × sec) 72E2
5068215

Query (molecule): O=C/C=C/c1ccc(O)cc1 ; field requested: Activity (area, uv × sec) 72E2
2612331

Query (molecule): COc1cc(/C=C/C=O)cc(OC)c1O ; field requested: Activity (area, uv × sec) 72E2
37002362

Next:
Query (molecule): OC/C=C/c1ccc(O)cc1 ; field requested: Activity (area, uv × sec) 72E2
0

Query (molecule): COc1cc(/C=C/CO)ccc1O ; field requested: Activity (area, uv × sec) 72E2
29756923

Query (molecule): COc1cc(/C=C/CO)cc(OC)c1O ; field requested: Activity (area, uv × sec) 72E2
3339410
